Task for the reader: assign each of the following sequences its reported IL-2 Range.
Tested on: T-Cell specific subpopulation (Clones)
protocol_notes: ELISA of cytokine secretion by the T-cell specific subpopulation (clones) stimulated with peptides
Assay type: cell-based, human
assay_setup: two experiments, four donors
No end group written: not given here.
State the answer as a number, implicitly in ng/mL.

# input Record request: IL-2 Range value, item SPFFLLLLL [VXL-5, SPFFLLLLL]
# output 0

# input Would you mind doing STPPVHNV [VXL-6, STPPVHNV, reference compound] as well?
# output 0

###

System: ImMucin specific T-cell subpopulation
protocol_notes: Proliferation of the ImMucin-specific T-cell subpopulation after three stimulations
Assay type: cell-based, human
assay_setup: one out of two experiments, four donors
Method: Thawed PBLs underwent 1st stimulation with ImMucin pulsed Autologues DC at a ratio of 20:1 and cultured for 7 days in dedicated T cell Medium. […] Proliferation analysis was conducted in three different methods. […] In the last step, plates were harvested and the radioactive counts were measured in a □ counter. • 1. […]
No end group written: not given here.
Task for the reader: assign each of the following sequences its reported IS (Average).
Please reply with the number alone, leaving off any unit.

# input Record request: IS (Average) value, item SPFFLLLLL [VXL-5, SPFFLLLLL]
# output 3.575

# input Would you mind doing TQSPFFLLL [VXL-4, TQSPFFLLL] as well?
# output 2.665

# input Would you mind doing LLLTVLTVV [VXL-1, LLLTVLTVV] as well?
# output 3.05

# input Would you mind doing STPPVHNV [VXL-6, STPPVHNV, reference compound] as well?
# output 1.125

# input Would you mind doing LLLLTVLTV [VXL-2, LLLLTVLTV] as well?
# output 3.275

# input Would you mind doing MTPGTQSPFFLLLLLTVLTVV [ImMucin] as well?
# output 3.2

###

Task for the reader: assign each of the following sequences its reported TNF-Alfa % of clones.
System: T-Cell specific subpopulation (Clones)
protocol_notes: ELISA of cytokine secretion by the T-cell specific subpopulation (clones) stimulated with peptides
Format: cell-based, human
assay_setup: two experiments, four donors
No end group written: not given here.
State the answer as a number, implicitly in %.

# input // map TQSPFFLLL [VXL-4, TQSPFFLLL] to recorded TNF-Alfa % of clones (system: T-Cell specific subpopulation (Clones))
# output 58

# input Would you mind doing LLLTVLTVV [VXL-1, LLLTVLTVV] as well?
# output 83

# input Would you mind doing SPFFLLLLL [VXL-5, SPFFLLLLL] as well?
# output 50

# input Would you mind doing STPPVHNV [VXL-6, STPPVHNV, reference compound] as well?
# output 50

# input Would you mind doing MTPGTQSPFFLLLLLTVLTVV [ImMucin] as well?
# output 90

# input Would you mind doing LLLLTVLTV [VXL-2, LLLLTVLTV] as well?
# output 83

###

Test system: T-Cell specific subpopulation (Clones)
protocol_notes: ELISA of cytokine secretion by the T-cell specific subpopulation (clones) stimulated with peptides
Format: cell-based, human
assay_setup: two experiments, four donors
No end group written: not given here.
result_type: INF-gamma % of clones (%)
State the answer as a number, implicitly in %.

# input Record request: INF-gamma % of clones value, item LLLLTVLTV [VXL-2, LLLLTVLTV]
# output 25

# input Would you mind doing LLLTVLTVV [VXL-1, LLLTVLTVV] as well?
# output 33

# input Would you mind doing STPPVHNV [VXL-6, STPPVHNV, reference compound] as well?
# output 8.3

# input Would you mind doing MTPGTQSPFFLLLLLTVLTVV [ImMucin] as well?
# output 90

# input Would you mind doing TQSPFFLLL [VXL-4, TQSPFFLLL] as well?
# output 33

# input Would you mind doing SPFFLLLLL [VXL-5, SPFFLLLLL] as well?
# output 33
